Target: Bromodomain-containing protein 4 (Homo sapiens)
Conditions: Compound concentration 20.0 uM
Non-standard residues stand in square brackets, D forms with d. Residues, ends and D or L forms follow the SMILES beside them. *: point of attachment. Tyr(3-Cl) = N[C@@H](Cc1ccc(O)c(Cl)c1)C(=O)O; Benzoyl(3,5-Cl2) = O=C(c1cc(Cl)cc(Cl)c1)*; Lys(Et2) = CCN(CC)CCCC[C@H](N)C(=O)O; Gly(cPent) = N[C@H](C(=O)O)C1CCCC1; NH(propargyl) = C#CCN*
recorded_metric: ΔTm (°C)
Unit °C implied. Number only.

Here's what some known entries look like.
{"compound": "CC(C)NCC(O)COC(Cn1c2ccccc2c2ccccc21)Cn1c2ccccc2c2ccccc21 (stereo unspecified)", "tgt": "Bromodomain-containing protein 4 (Homo sapiens)", "ΔTm / °C": 0}
{"compound": "COCCOCCn1nc2c(c1C)-c1c(Cl)ccc3c1c(C)c(C(=O)O)n3CCCOc1cc(cc3c(F)c(Cl)ccc13)CCc1cc(nn1C)CSC2", "tgt": "Bromodomain-containing protein 4 (Homo sapiens)", "ΔTm / °C": -3.74}
{"compound": "COc1ccc(-c2c(-c3ccc(C#N)c(F)c3)nc(N3CCC(N)CC3)n(C)c2=O)cc1F", "tgt": "Bromodomain-containing protein 4 (Homo sapiens)", "ΔTm / °C": -3.53}
{"compound": "N[C@@H](CC(=O)N1CCN(C(c2ccc(F)cc2)c2ccc(F)cc2)CC1)C(=O)N1Cc2ccccc2C1", "tgt": "Bromodomain-containing protein 4 (Homo sapiens)", "ΔTm / °C": 0.11}
{"compound": "Cc1ccsc1C(=CCCN1CCC[C@@H](C(=O)O)C1)c1sccc1C", "tgt": "Bromodomain-containing protein 4 (Homo sapiens)", "ΔTm / °C": 0.65}

What ΔTm value was documented for this compound, C#CCNC(=O)[C@H](CO)NC(=O)[C@H](CCCCN(CC)CC)NC(=O)[C@@H](NC(=O)[C@@H](NC(=O)[C@H](Cc1ccc(O)c(Cl)c1)NC(=O)c1cc(Cl)cc(Cl)c1)C1CCCC1)[C@@H](C)CC ({Benzoyl(3,5-Cl2)}-[Tyr(3-Cl)][Gly(cPent)]I[Lys(Et2)]S-{NH(propargyl)}) ?
-3.03
